- Tested on: P. aeuroginosa
- experiment description: Antibacterial activity, inhibition zone approach
- Assay type: cell-based, Pseudomonas aeuroginosa
- experimental conditions: authors' grading of Table 2 values, key not given
measure name: antimicrobial activity with P. aeuroginosa, in words

Please review the following examples before continuing.
>  <compound>
Oc1ccc(C2=NNC(c3cccs3)C2)cc1 (stereo not shown)

>  <assay result>
very strong

$$$$
>  <compound>
CCOC(=O)CN1N=C(c2ccc(O)cc2)CC1c1cccs1 (stereo not shown) [15a]

>  <assay result>
strong

$$$$
>  <compound>
O=C(CCl)SC(=S)N1N=C(c2ccc(O)cc2)CC1c1cccs1 (stereo not shown) [20a]

>  <assay result>
weak

$$$$
>  <compound>
NS(=O)(=O)c1ccc(NC(=O)CN2N=C(c3ccc(O)cc3)CC2c2cccs2)cc1 (stereo not shown) [16a]

>  <assay result>
moderate

$$$$
>  <compound>
Oc1ccc(-c2cc(-c3cccs3)nc(/N=C/c3ccccc3O)n2)cc1 [13a]

>  <assay result>
very strong

$$$$
>  <compound>
Nc1nc(-c2ccc(O)cc2)cc(-c2cccs2)n1 [11a]

>  <assay result>
moderate

$$$$

Entry CCOC(=O)CSC(=S)N1N=C(c2ccc(O)cc2)CC1c1cccs1 (stereo not shown) [17a] — recorded antimicrobial activity with P. aeuroginosa, in words = weak

Entry O=C(O)CSC(=S)N1N=C(c2ccc(O)cc2)CC1c1cccs1 (stereo not shown) [19a] — recorded antimicrobial activity with P. aeuroginosa, in words = moderate

Entry NC(=S)n1nc(-c2ccc(Cl)c(Cl)c2)cc1-c1cccs1 [10b] — recorded antimicrobial activity with P. aeuroginosa, in words = very strong

Entry "N#Cc1c(-c2cccs2)cc(-c2ccc(O)cc2)nc1N" — recorded antimicrobial activity with P. aeuroginosa, in words = strong

* * *

- Tested on: S. aureus
- experiment description: Antibacterial activity, inhibition zone approach
- Assay type: cell-based, Staphylococcus aureus
- experimental conditions: authors' grading of Table 2 values, key not given
measure name: antimicrobial activity with S. aureus, in words

>  <compound>
N#Cc1c(-c2cccs2)cc(-c2ccc(Cl)c(Cl)c2)nc1N

>  <assay result>
moderate

$$$$
>  <compound>
Nc1nc(-c2ccc(O)cc2)cc(-c2cccs2)n1 [11a]

>  <assay result>
moderate

$$$$

* * *

- experimental system: UniProtKB P00533
- Sequence (P00533 25-1210): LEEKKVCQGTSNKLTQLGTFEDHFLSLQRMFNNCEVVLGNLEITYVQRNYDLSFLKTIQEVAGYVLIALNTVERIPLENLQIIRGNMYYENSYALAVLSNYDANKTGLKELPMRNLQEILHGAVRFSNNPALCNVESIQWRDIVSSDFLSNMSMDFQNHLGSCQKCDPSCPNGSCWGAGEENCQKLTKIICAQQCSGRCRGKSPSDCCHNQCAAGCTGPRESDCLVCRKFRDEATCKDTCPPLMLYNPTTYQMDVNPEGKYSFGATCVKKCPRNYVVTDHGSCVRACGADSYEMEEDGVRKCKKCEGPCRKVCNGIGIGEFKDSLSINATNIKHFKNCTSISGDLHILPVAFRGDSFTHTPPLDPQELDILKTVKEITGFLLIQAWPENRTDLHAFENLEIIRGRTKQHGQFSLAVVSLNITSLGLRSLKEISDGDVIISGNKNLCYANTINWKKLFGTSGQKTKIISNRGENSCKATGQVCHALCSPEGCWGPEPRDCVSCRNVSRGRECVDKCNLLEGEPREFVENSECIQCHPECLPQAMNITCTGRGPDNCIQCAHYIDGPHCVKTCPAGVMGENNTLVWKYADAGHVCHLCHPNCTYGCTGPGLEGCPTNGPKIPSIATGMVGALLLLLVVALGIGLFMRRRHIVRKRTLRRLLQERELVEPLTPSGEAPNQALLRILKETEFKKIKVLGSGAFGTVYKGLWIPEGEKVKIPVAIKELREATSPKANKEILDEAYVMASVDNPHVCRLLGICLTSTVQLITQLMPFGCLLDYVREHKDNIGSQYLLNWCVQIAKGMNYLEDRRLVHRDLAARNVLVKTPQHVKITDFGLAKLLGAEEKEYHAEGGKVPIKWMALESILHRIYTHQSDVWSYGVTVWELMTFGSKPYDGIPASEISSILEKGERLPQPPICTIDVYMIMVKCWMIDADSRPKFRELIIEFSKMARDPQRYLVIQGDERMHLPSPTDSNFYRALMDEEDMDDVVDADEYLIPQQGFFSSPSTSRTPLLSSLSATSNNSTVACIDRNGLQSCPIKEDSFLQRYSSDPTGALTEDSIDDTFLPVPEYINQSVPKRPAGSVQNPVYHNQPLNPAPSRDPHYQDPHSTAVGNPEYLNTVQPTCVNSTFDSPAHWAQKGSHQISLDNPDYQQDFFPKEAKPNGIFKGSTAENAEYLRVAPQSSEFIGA
- experiment description: EGFR inhibitory activity, homogeneous luminescence release assay
- Format: biochemical
- experimental conditions: reference erlotinib; read-out: EGFR inhibition IC50
The following molecules are shown together with reported IC50 values.
Kindly answer with a numeric value in nM, unit omitted.

>  <molecule>
Oc1ccc(C2=NNC(c3cccs3)C2)cc1 (stereo not drawn)

>  <readout unit>
nM

>  <assay result>
266

$$$$

Entry CCOC(=O)CN1N=C(c2ccc(O)cc2)CC1c1cccs1 (stereo not drawn) [15a] — recorded IC50 = 894

Entry "N#Cc1c(-c2cccs2)cc(-c2ccc(O)cc2)nc1N" — recorded IC50 = 209

Entry "N#Cc1c(N)c2c(-c3cccs3)cc(-c3ccc(O)cc3)nc2[nH]c1=O" — recorded IC50 = 326

Entry NC(=S)n1nc(-c2ccc(Cl)c(Cl)c2)cc1-c1cccs1 [10b] — recorded IC50 = 161

Entry O=C(SC(=S)N1N=C(c2ccc(O)cc2)CC1c1cccs1)c1ccccc1 (stereo not drawn) [18a] — recorded IC50 = 436
